Just for reference, paper PMC12116762 is where these values come from.

System: neonatal rat ventricular cardiomyocytes (NVCM)
protocol summary: Inherent toxicity (LDH release) in NVCM
Assay type: cell-based
Set-up: key: % of total LDH activity
setup conditions: compound alone 30 µM; NVCM; Suppl.Fig.4
// label = Criterion met if LDH release (inherent toxicity), mean of independent replicates is not less than 20, otherwise Criterion not met

Query block: Reported LDH release (inherent toxicity), mean of independent replicates at or above 20? CCCc1cc(=O)oc2c(C(=O)N3CCCc4ccccc43)c(O)ccc12 [2c]
Result block: Criterion not met

Query block: Determine whether measured LDH release (inherent toxicity), mean of independent replicates meets or exceeds 20 for CCc1cc(=O)oc2c(C(=O)N3CCCc4ccccc43)c(O)ccc12 [2b]
Result block: Criterion not met

Query block: Confirm if LDH release (inherent toxicity), mean of independent replicates reported for the molecule Cc1cc(=O)oc2c(C(=O)N3CCCc4ccccc43)c(O)ccc12 [2a] is 20 or above.
Result block: Criterion not met

Query block: Decide: LDH release (inherent toxicity), mean of independent replicates of CCc1cc(=O)oc2c(C(=O)N3CCCc4ccccc43)c(OCCO)ccc12 [5b] >= 20?
Result block: Criterion not met

Next:
Query block: LDH release (inherent toxicity), mean of independent replicates >= 20 for Cc1cc(=O)oc2c(C(=O)N3CCCc4ccccc43)c(OCCO)ccc12 [5a] ?
Result block: Criterion not met

Query block: LDH release (inherent toxicity), mean of independent replicates >= 20 for CCCCc1cc(=O)oc2c(C(=O)N3CCCc4ccccc43)c(OCCO)ccc12 [5d] ?
Result block: Criterion met

Query block: # check: LDH release (inherent toxicity), mean of independent replicates of CCCc1cc(=O)oc2c(C(=O)N3CCCc4ccccc43)c(OCCO)ccc12 [5c] is greater than or equal to 20
Result block: Criterion not met

Query block: Reported LDH release (inherent toxicity), mean of independent replicates reaches at least 20 for CCCCc1cc(=O)oc2c(C(=O)N3CCCc4ccccc43)c(OC)cc(OC)c12 [1d] ?
Result block: Criterion met

Query block: Does LDH release (inherent toxicity), mean of independent replicates meet or surpass 20 for CCCOc1ccc2c(CC)cc(=O)oc2c1C(=O)N1CCCc2ccccc21 [4b] ?
Result block: Criterion not met

---

Entries annotated with measured LDH release (inherent toxicity), mean of independent replicates
Tested on: neonatal rat ventricular cardiomyocytes (NVCM)
protocol summary: Inherent toxicity (LDH release) in NVCM
Format: cell-based
Set-up: key: % of total LDH activity
setup conditions: compound alone 3 µM; NVCM; Suppl.Fig.4
Kindly provide the number alone.

Here are 3 molecules together with their reported answers.
Query block: Return reported LDH release (inherent toxicity), mean of independent replicates. Input molecule: `CCCc1cc(=O)oc2c(C(=O)N3CCCc4ccccc43)c(OC)ccc12`
Result block: 15.3033

Query block: Answer with the recorded LDH release (inherent toxicity), mean of independent replicates of `COc1ccc2c(C)cc(=O)oc2c1C(=O)N1CCCc2ccccc21` only.
Result block: 15.6047

Query block: Give me measured LDH release (inherent toxicity), mean of independent replicates, please, for this molecule: `CCCc1cc(=O)oc2c(C(=O)N3CCCc4ccccc43)c(OC)cc(OC)c12`
Result block: 14.5033

# input for lookup
Query block: State its LDH release (inherent toxicity), mean of independent replicates: `CCc1cc(=O)oc2c(C(=O)N3CCCc4ccccc43)c(OC)ccc12`
Result block: 15.619
